- SYSTEM NAME: human Survivin K62A (Homo sapiens, UniProt O15392, K62A)
- Sequence (O15392 whole entry K62A): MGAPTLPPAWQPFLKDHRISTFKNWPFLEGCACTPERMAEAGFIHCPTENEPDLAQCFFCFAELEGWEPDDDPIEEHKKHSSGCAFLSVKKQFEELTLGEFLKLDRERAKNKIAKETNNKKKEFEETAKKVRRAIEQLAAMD
- ASSAY COMMENT: ITC binding of histone H3 peptides to human Survivin K62A
Peptide text beside a SMILES is read from it.
MEASURED ENDPOINT: pKd
Interpret pKd as the negative base-10 log of the concentration measured in mol/L.

Sample C[C@H](N)C(=O)N[C@@H](CCCNC(=N)N)C(=O)N[C@H](C(=O)N[C@@H](CCCCN)C(=O)O)[C@@H](C)O [H3T3(1-4)] (H-ARTK-OH) — what was its pKd?
4.50
